Where do the numbers come from? From ChEMBL document CHEMBL3525989.

target: UniProt:P08684; assay: Binding affinity to CYP3A4 (unknown origin); format: ADME; settings: read-out: Ks
Property name: Kd (µM)
Write the number in µM without appending the unit.

// sample CC(C)[C@H]1c2ccc(F)cc2CC[C@]1(O)CCN(C)CCCc1nc2ccccc2[nH]1 , its Kd was 1.39

###

target: CYP3A4 (Homo sapiens, UniProt P08684); experiment: Inhibition of recombinant CYP3A4 (unknown origin) expressed in baculosomes in presence of 1 mM NADPH; type: ADME; conditions: human, recombinant CYP3A4 expressed in baculosomes
Sequence (P08684 whole entry): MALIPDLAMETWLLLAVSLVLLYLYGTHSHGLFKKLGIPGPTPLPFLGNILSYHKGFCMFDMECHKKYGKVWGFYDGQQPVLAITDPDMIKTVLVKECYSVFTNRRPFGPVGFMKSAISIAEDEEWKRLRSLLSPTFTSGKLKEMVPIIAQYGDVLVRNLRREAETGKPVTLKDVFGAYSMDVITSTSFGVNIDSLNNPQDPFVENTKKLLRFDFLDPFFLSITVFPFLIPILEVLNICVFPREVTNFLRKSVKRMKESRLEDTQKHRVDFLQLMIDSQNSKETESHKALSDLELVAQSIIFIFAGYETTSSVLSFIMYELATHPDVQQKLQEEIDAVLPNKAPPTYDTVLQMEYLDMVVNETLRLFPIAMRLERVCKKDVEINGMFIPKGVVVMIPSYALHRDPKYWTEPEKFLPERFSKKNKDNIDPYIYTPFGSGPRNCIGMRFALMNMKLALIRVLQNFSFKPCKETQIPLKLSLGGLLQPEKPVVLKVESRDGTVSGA
Property name: kinact

// sample CC(C)[C@H]1c2ccc(F)cc2CC[C@]1(O)CCN(C)CCCc1nc2ccccc2[nH]1 , its kinact was 0.00133 s⁻¹

###

target: Cytochrome P450 3A4 (Homo sapiens); assay: Inhibition of recombinant CYP3A4 (unknown origin) expressed in baculosomes in presence of 1 mM NADPH
Sequence (P08684 whole entry): as above
Property name: pKi
pKi field: float, defined as -log10 of concentration (mol/L).

// sample CC(C)[C@H]1c2ccc(F)cc2CC[C@]1(O)CCN(C)CCCc1nc2ccccc2[nH]1 , its pKi was 6.09
